Numbers sourced from PubChem BioAssay AID588852.

Give measured inhibition for each item. Keep answers brief.
Molecular target: Muscarinic acetylcholine receptor M1 (Homo sapiens)
Experiment: CHRM1 blockers of acetylcholine calcium response – CHO-K1 cells, Fluo-8 calcium fluorescence, 1536-well, primary screen (AID 588852);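 also: peak over basal fluorescence ratio during 140 s after agonist addition; 0% = ACh EC80 plus DMSO and 100% = DMSO alone without agonist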
Details: CHO-K1 hM1, Fluo-8 calcium fluorescence, ACh EC80 antagonist; at 3 µM; active compounds read high
The whole screen tested about 360,000 compounds, of which about 4,600 (1.3%) were called active. For the sample, actives were picked, then their nearest neighbours and some compounds at random.

Here are 3 molecules together with their reported answers.
1) COc1ccc(NC(=O)C2Cc3c(-c4ccc5c(c4)OCO5)ccnc3O2)cn1 (stereo unspecified) ... -14.1% (inactive)
2) COc1cc(NC(=O)c2cc(-c3ccc(F)cc3OC(C)C)n[nH]2)cc(OC)c1OC ... 8.53% (inactive)
3) CCCCNC(=O)c1nc(C2CCN(S(=O)(=O)c3ccc(F)c(F)c3)CC2)oc1-c1cccc(C(F)(F)F)c1 ... -12% (inactive)

Hi, could you look up inhibition for each item in my list?
1. CCC(=O)c1ccc(N2CCN(C(=O)c3cc([N+](=O)[O-])ccc3F)CC2)c(F)c1
2. CCNC(=O)C1(C)CCCN(C(=O)c2c(C)noc2C)C1 (stereo unspecified)
3. CCN1CCN(CCNC(=O)c2ccc(/C=C3/Sc4ccccc4N(Cc4cccc(C)c4)C3=O)cc2)CC1
4. O=C1CCc2cc(S(=O)(=O)N3CCC(C(=O)NCc4ccccc4Cl)CC3)ccc2N1

Out:
1: 11.9% (inactive); 2: -8.22% (inactive); 3: 35.2% (active); 4: -13.3% (inactive)

###

Biological target: Muscarinic acetylcholine receptor M1 (Homo sapiens) (UniProt P11229)
Sequence (P11229 whole entry, looked up): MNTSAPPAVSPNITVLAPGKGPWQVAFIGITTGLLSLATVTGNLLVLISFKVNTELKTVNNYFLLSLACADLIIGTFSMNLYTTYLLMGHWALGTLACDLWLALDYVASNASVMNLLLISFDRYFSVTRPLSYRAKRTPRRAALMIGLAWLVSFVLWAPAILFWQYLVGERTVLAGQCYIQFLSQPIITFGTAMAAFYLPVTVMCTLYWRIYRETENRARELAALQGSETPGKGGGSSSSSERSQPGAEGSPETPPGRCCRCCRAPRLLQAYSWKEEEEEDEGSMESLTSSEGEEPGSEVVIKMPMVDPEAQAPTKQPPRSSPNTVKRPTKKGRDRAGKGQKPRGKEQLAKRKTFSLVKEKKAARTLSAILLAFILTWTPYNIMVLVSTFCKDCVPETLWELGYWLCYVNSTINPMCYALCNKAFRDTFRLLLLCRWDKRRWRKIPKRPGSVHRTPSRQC
Experiment: CHRM1 blockers of acetylcholine calcium response – CHO-K1 cells, Fluo-8 calcium fluorescence, 1536-well, primary screen (AID 588852)
Settings: CHO-K1 hM1, Fluo-8 calcium fluorescence, ACh EC80 antagonist; at 3 µM
The campaign covered roughly 360,000 compounds. About 4,600 (1.3%) were called active.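 Rule for the calls: active = percent inhibition above its own plate's cutoff, namely the mean of that plate's compound wells plus 3 SD; inactive = the rest.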 Shown is part of a subset that was picked to be rich in actives.
In this exercise, the only acceptable responses are Y (active), N (inactive)

These recorded examples may help you get a feel for the data.
1. CCNC(=O)COC(=O)/C=C/c1c(C)nn(Cc2cccc(OC)c2)c1Cl ... N
2. CC(=O)N1CCCc2cc(S(=O)(=O)N3CCCC(C(=O)N4CCN(c5cccc(Cl)c5)CC4)C3)ccc21 (stereo not given) ... Y
3. CC1CCCN(CCOCCOc2ccccc2-c2ccccc2)C1 (stereo not given) ... N

In: Per the assay record, what outcome was assigned to CC(=O)N1c2ccc(S(=O)(=O)N3CCC(C(=O)N4CCN(c5ccccc5)CC4)CC3)cc2CC1C (stereo not given) ?
Out: N

In: Also need CN1CCN(CCCCOc2ccccc2-c2ccccc2)CC1 , thanks.
Out: N

###

Target: Muscarinic acetylcholine receptor M1 (Homo sapiens) (UniProt P11229)
Test: CHRM1 blockers of acetylcholine calcium response – CHO-K1 cells, Fluo-8 calcium fluorescence, 1536-well, primary screen (AID 588852)
Conditions: CHO-K1 hM1, Fluo-8 calcium fluorescence, ACh EC80 antagonist; at 3 µM
Hit rate of the full screen: of about 360,000 compounds, about 4,600 (1.3%) were called active.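 The calls were made as follows: active = percent inhibition above its own plate's cutoff, namely the mean of that plate's compound wells plus 3 SD; inactive = the rest.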 For the sample, actives were picked, then their nearest neighbours and some compounds at random.
In this exercise, the only acceptable responses are active, inactive

These recorded examples may help you get a feel for the data.
1) Cc1cc(C)cc(OCC(=O)Nc2ccc(N3CCOCC3)cc2N2CCOCC2)c1 ... inactive
2) O=C(NNC(=O)c1ccc(-c2ccccc2)cc1)Nc1ccccc1 ... inactive

In: Per the assay record, what outcome was assigned to C=Cn1cc[n+](CC(=O)c2ccc(OC)c(OC)c2)c1 ?
Out: inactive

In: Also need CC(C(=O)c1ccc(-c2ccccc2)cc1)[n+]1cccc(Br)c1 (stereo unspecified) , thanks.
Out: active

In: Also need N/C(=N\OC(=O)Nc1ccccc1)c1ccno1 , thanks.
Out: inactive

In: Also need C[n+]1cccc(C(=O)O)c1 , thanks.
Out: inactive

###

Target: Muscarinic acetylcholine receptor M1 (Homo sapiens) (UniProt P11229)
Test: CHRM1 blockers of acetylcholine calcium response – CHO-K1 cells, Fluo-8 calcium fluorescence, 1536-well, primary screen (AID 588852);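 also: peak over basal fluorescence ratio during 140 s after agonist addition; 0% = ACh EC80 plus DMSO and 100% = DMSO alone without agonist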
Details: CHO-K1 hM1, Fluo-8 calcium fluorescence, ACh EC80 antagonist; at 3 µM
The campaign covered roughly 360,000 compounds. About 4,600 (1.3%) were called active.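 The calls were made as follows: active = percent inhibition above its own plate's cutoff, namely the mean of that plate's compound wells plus 3 SD; inactive = the rest.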 For the sample, actives were picked, then their nearest neighbours and some compounds at random.
In this exercise, the only acceptable responses are y for active, n for inactive

1. C=CCn1c(=O)c2ccccc2n2c(SCC(=O)N3CCCc4ccccc43)nnc12 ... n
2. CSc1ccc(CN2C(=O)NC3(CCCCCC3)C2=O)cc1 ... n
3. O=C(CSc1nc2ccccc2c(=O)n1CCCO)N1CCc2ccccc21 ... n
4. CCSc1nc2sc3c(c2c(=O)[nH]1)CC(C)(C)OC3 ... n
5. N=c1c2c3c(sc2nc2n1CCCCC2)CCCC3 ... y
6. CC(=O)Nc1cc(-c2ccccc2N(C)C)cn2c(-c3ccc(F)c(Cl)c3)cnc12 ... n

In: Per the assay record, what outcome was assigned to CC1(C)Cc2c(sc3nc4n(c(=N)c23)CCCCC4)CO1 ?
Out: y

In: Also need COc1ccccc1N1CCN(CC(=O)NCCc2ccc(S(N)(=O)=O)cc2)CC1 , thanks.
Out: n

In: Also need Cc1ccc(S(=O)(=O)N2CCN(C)CC2)cc1 , thanks.
Out: n

In: Also need O=C(NCCCn1ccnc1)c1cc2c(s1)CCCC2 , thanks.
Out: n

In: Also need CC(C)(C)N(CC#CCC(O)(c1ccccc1)C1CCCC1)CCO (configuration not stated) , thanks.
Out: y

In: Also need C=CCN(c1ccc(Cl)cc1)S(=O)(=O)c1cccc(C(=O)OCC(=O)N(C)C)c1 , thanks.
Out: n

In: Also need CCn1ccnc1CNC(=O)CC1C(=O)NCCN1CCCc1ccccc1 (configuration not stated) , thanks.
Out: n

In: Also need CN1OC[C@@H]2CN(C(=O)c3cccc4ccccc34)[C@H](c3ccc(N4CCCCC4)cc3)C[C@@H]21 , thanks.
Out: n

In: Also need O=C(COC(=O)c1cc(S(=O)(=O)N2CCOCC2)ccc1F)NC1CC1 , thanks.
Out: n

In: Also need CC(C)c1nc2sc3c(c2c(=O)n1N)CC(C)(C)OC3 , thanks.
Out: n

In: Also need O=C(/C=C/[C@H]1O[C@@H](n2ccc(=O)[nH]c2=O)[C@H](O)[C@@H]1O)NCc1ccccn1 , thanks.
Out: n

In: Also need O=c1c2c(nc3n1CCCCC3)sc1c(O)cccc12 , thanks.
Out: n

In: Also need Cc1ccc(CN2CC(N3CCC(Cc4ccccc4)CC3)CS2(=O)=O)cc1 (configuration not stated) , thanks.
Out: n

In: Also need Cc1ccc(S(=O)(=O)N2CCN(c3ncnc4ccccc34)CC2)cc1 , thanks.
Out: y

In: Also need CC(C)CN(C(=O)c1ccc2c(c1)OCO2)C1CCS(=O)(=O)C1 (configuration not stated) , thanks.
Out: n

In: Also need Cc1ccc(S(=O)(=O)N2CCN(Cc3cccc(C)c3O)CC2)cc1 , thanks.
Out: n

###

Biological target: Muscarinic acetylcholine receptor M1 (Homo sapiens) (UniProt P11229)
Assay: CHRM1 blockers of acetylcholine calcium response – CHO-K1 cells, Fluo-8 calcium fluorescence, 1536-well, primary screen (AID 588852);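 also: peak over basal fluorescence ratio during 140 s after agonist addition; 0% = ACh EC80 plus DMSO and 100% = DMSO alone without agonist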
Details: CHO-K1 hM1, Fluo-8 calcium fluorescence, ACh EC80 antagonist; at 3 µM; active compounds read high
Screen size: about 360,000 compounds; about 4,600 (1.3%) were called active. This is one part of a sample in which actives are shown more often than they occur.
endpoint_label: inhibition (%)
One number for each entry, in %.

1) CN(Cc1ccccc1)C(=O)COc1ccccc1 ... 1.72

Hi, could you look up inhibition for each item in my list?
1. CCc1ccccc1NC(=O)NCCN1CCCCC1
2. CCCCOc1ccc(C(C)(O)CCN2CCOCC2)cc1 (stereo not drawn)
3. COc1ccc(S(=O)(=O)NC(C)C(=O)NCc2ccncc2)cc1Cl (stereo not drawn)

Out:
-20.3
-7.98
25.1

###

Biological target: Muscarinic acetylcholine receptor M1 (Homo sapiens)
Test: CHRM1 blockers of acetylcholine calcium response – CHO-K1 cells, Fluo-8 calcium fluorescence, 1536-well, primary screen (AID 588852);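 also: peak over basal fluorescence ratio during 140 s after agonist addition; 0% = ACh EC80 plus DMSO and 100% = DMSO alone without agonist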
Settings: CHO-K1 hM1, Fluo-8 calcium fluorescence, ACh EC80 antagonist; at 3 µM
Hit rate of the full screen: of about 360,000 compounds, about 4,600 (1.3%) were called active.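 How the source made its calls: active means percent inhibition above its own plate's cutoff, namely the mean of that plate's compound wells plus 3 SD; inactive means the rest.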 Only a selection was taken, and actives are over-represented in it overall. Peptide text beside a SMILES is read from it. * marks the point of attachment. Bz = O=C(c1ccccc1)*
In this exercise, the only acceptable responses are active, inactive

These recorded examples may help you get a feel for the data.
1. O=C(NC(Cc1ccccc1)C(=O)N1CCCC1C(=O)O)c1ccccc1 (stereo not drawn) (Bz-Phe-Pro-OH; configuration not given here) ... inactive
2. COC(CCN(C)C)(c1ccccc1)c1ccccc1 ... active
3. CN(C)CCNC(=O)c1ccc(-c2cn3c(-c4ccc(Oc5ccccc5)cc4)cnc3cn2)cc1 ... inactive
4. CCCCc1nc(NCc2ccccc2)c(C#N)c2c1CCCC2 ... inactive
5. COc1cccc(-c2cnc3c(NC(C)=O)cc(-c4cc(F)ccc4OC)cn23)c1 ... inactive
6. CCSc1nsc(NC(=O)Nc2cccc(C(C)=O)c2)n1 ... active

In: Per the assay record, what outcome was assigned to CC(=O)c1cccc(NC(=S)N2CCN(S(C)(=O)=O)CC2)c1 ?
Out: inactive

In: Also need CN(Cc1ccccc1F)C(=O)C(Cc1ccccc1)NC(=O)c1ccccc1 (stereo not given) , thanks.
Out: active

In: Also need COc1ccc(NC(C(=O)Nc2cccc(C(C)=O)c2)c2ccccc2)cc1 (stereo not given) , thanks.
Out: inactive

In: Also need CSc1ccccc1C(=O)Nc1cccc(C(C)=O)c1 , thanks.
Out: inactive
